Numbers sourced from patent US20040018971A1.

# targetOrSystem: HLA-A*0203 (human)
# test: competition for purified HLA vs 125I-labelled probe peptide, gel filtration
# conditionSummary: remark: other sources report otherwise
pIC50: −log10 of the molar value.

binder | pIC50
VLLGVVFGV [Her2/neu.665.L2V9] | 7.85
